target: RSV prefusion F (preF, DS-Cav1) (Respiratory syncytial virus); assay: BLI, IgG on sensor, 100 nM antigen
PROPERTY: Kd (nM)
Give the value in nM but do not write nM after it.

// below: answered binders
ADI-41320 (antibody, V domains shown) VH: QVQLVQSGVEVKKPGESLKISCRGFGYSAYNYWIAWVRQKPGKGLEYMGTIYLDDSDTIYSPSFQGEVTISADRSINTAYLQWNSLKASDTANYYCARQMDFYFDVWGRGTLVTVSS VL: QSVLTQPPSVSVSPGQTARITCSGDPLPRESAYWYQQKPGQAPVVVIFNDIERPLGIPARFSGSRSGTTVTLTISGAQAEDEADYYCQSADSRKTFVFGPGTKLTVL | 3.2
ADI-41238 (antibody, V domains shown) VH: EVQLLESGGGLVKPGGSLRLSCAASGFTFRDYYMSWIRQAPGKGLEWVSYISSSSSYTEYADSVKGRFTISRDNAKKSLYLQMNSLRTEDTAVYYCARVITQAGTGTTYYMDVWGKGTTVTVSS VL: QSVLTQPPSVSGAPGQRVTISCTGSSSNIGTGYDVHWYQQLPGTAPKLLIYANNNRPSGVPDRFSGSKSGTSASLAITGLQAEDEADYYCQSYDSSLSLVFGGGTKLTVL | 1.03

Next binder, Kd to be filled in.
Q: Which value of Kd has been reported for ADI-41247 (antibody, V domains shown) VH: QVQLVQSGAEVKKPGASLQVSCKASGYTFTDSYFHWVRQAPGQGLEWMGRISPHSGGTNYAQKFQGRVTMTRDTSISTAYLELSRLRSDDTAVYYCATEGPRGPFRFDPWGQGTLVTVSS VL: NFMLTQPHSVSESPGKTVTISCTRSSGSIASNYVQWYQQRPGSSPTTVIYEDNQRPSGVPDRFSGSIDSSSNSASLTISGLMTEDEADYYCQSYDSSNWVFGGGTKLTVL in the records?
A: 2.76
